- Assay target: human CYP2D6 (Homo sapiens)
- Sequence (P10635 whole entry): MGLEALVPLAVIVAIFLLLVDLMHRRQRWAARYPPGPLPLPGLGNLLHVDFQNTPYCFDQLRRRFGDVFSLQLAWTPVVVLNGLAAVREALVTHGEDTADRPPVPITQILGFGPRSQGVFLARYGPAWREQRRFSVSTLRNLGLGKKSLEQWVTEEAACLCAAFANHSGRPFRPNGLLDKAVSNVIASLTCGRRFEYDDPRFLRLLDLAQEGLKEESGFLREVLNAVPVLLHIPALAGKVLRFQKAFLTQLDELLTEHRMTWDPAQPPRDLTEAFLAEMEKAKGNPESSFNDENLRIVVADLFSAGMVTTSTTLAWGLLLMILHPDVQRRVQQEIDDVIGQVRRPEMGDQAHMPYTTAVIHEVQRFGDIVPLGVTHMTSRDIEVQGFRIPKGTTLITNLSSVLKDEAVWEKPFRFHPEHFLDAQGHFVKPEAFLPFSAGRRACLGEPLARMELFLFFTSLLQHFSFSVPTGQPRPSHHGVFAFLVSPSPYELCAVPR
- Test context: human
Measured attribute: CYP2D6 Efficacy (in parenthesis)

In: Observed CYP2D6 Efficacy (in parenthesis) on human CYP2D6 (Homo sapiens) for CCCOC/C(=N\c1ccc(Cl)cc1C(F)(F)F)n1ccnc1 , please.
Out: 34.28 ± 2.23 (-99 ± 9) %

In: Quick check: CYP2D6 Efficacy (in parenthesis) on human CYP2D6 (Homo sapiens), item O=[N+]([O-])c1c2ccccc2cc2ccccc12 ?
Out: 34.03 ± 2.33 (-39 ± 13) %

In: Lab note: need CYP2D6 Efficacy (in parenthesis) with human CYP2D6 (Homo sapiens) for entry CCCC1COC(Cn2cncn2)(c2ccc(Cl)cc2Cl)O1 (centres unmarked) , please look it up.
Out: 37.02 ± 2.51 (-73 ± 5) %

In: Fill in the recorded CYP2D6 Efficacy (in parenthesis) for this molecule, with human CYP2D6 (Homo sapiens) as test system: OC(c1ccc(Cl)cc1)(c1ccc(Cl)cc1)C(Cl)(Cl)Cl
Out: 44.8 ± 22.68 (-69 ± 14) %

In: Query CYP2D6 Efficacy (in parenthesis) on human CYP2D6 (Homo sapiens) for Clc1ccc(C(Cn2ccnc2)OCc2ccsc2Cl)c(Cl)c1 (centres unmarked)
Out: 2.79 ± 0.58 (-109 ± 6) %

* * *

- Assay target: human CYP2C9 (Homo sapiens)
- Sequence (P11712 whole entry): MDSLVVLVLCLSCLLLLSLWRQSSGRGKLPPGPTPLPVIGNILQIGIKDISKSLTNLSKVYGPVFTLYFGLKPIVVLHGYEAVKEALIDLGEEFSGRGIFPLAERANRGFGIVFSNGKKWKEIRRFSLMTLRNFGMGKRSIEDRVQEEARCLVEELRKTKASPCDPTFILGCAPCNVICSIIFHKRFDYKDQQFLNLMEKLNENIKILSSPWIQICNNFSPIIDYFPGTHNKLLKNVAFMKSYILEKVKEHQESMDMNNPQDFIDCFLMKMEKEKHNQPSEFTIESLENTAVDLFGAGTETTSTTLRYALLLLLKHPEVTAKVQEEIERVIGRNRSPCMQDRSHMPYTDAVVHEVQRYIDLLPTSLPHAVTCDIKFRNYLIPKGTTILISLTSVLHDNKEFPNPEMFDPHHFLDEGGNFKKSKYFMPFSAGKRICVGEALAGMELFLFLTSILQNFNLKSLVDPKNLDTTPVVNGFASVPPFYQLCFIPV
- Test context: human
Measured attribute: CYP2C9 Efficacy (in parenthesis)

In: Tell me the measured CYP2C9 Efficacy (in parenthesis) of CCN(CC)C(=O)SCc1ccc(Cl)cc1 , please.
Out: 25.18 ± 0 (-91 ± 2) %

In: Data request, read-out CYP2C9 Efficacy (in parenthesis), for O=S(=O)(Oc1ccc(Cl)cc1)c1ccc(Cl)cc1
Out: 18.81 ± 7.04 (-92 ± 16) %

In: Requested read-out: CYP2C9 Efficacy (in parenthesis). Entry: CCOP(=S)(OCC)SCn1nnc2ccccc2c1=O
Out: 0.57 ± 0.11 (-97 ± 0) %

In: Returns the measured CYP2C9 Efficacy (in parenthesis) for the input molecule. Input: FC(F)C(F)(F)OCC(Cn1cncn1)c1ccc(Cl)cc1Cl (centres unmarked)
Out: 1.84 ± 0.12 (-114 ± 7) %

In: Please give the measured CYP2C9 Efficacy (in parenthesis) for this molecule: CCNP(=S)(OC)O/C(C)=C/C(=O)OC(C)C (centres unmarked)
Out: 0.57 ± 0.11 (-102 ± 4) %

* * *

- Assay target: UniProtKB P08684
- Sequence (P08684 whole entry): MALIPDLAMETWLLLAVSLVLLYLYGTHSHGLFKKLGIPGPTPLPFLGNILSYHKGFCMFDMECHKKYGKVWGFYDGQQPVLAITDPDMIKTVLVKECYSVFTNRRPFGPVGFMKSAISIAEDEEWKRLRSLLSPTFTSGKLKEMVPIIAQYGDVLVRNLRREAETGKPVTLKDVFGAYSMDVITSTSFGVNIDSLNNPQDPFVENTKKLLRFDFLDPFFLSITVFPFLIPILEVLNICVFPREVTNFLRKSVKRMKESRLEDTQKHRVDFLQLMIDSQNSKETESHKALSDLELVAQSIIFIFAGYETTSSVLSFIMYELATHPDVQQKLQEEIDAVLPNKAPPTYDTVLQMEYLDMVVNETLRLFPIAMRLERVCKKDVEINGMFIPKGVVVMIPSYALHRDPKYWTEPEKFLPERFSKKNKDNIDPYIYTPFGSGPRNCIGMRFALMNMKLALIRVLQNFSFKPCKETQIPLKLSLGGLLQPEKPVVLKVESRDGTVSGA
- Assay details: in vitro
Measured attribute: IC50 (nM)
Only the number, expressed in nM, is required.

In: Give its IC50 value. Item: C=CCN1C[C@H](C(=O)N(CCCN(C)C)C(=O)NCC)C[C@@H]2c3cccc4[nH]cc(c34)C[C@H]21
Out: 1020

* * *

In what follows, each item is paired with its CYP2D6 AC50 (half-maximal activity concentration) for human CYP2D6 (Homo sapiens).

Field: example entries. Status: answers known.
>  <Compound>
O=C(O)c1ccc(Cl)c(Cl)c1

>  <Result>
Inactive

$$$$
>  <Compound>
CCNc1nc(NC(C)C)nc(OC)n1

>  <Result>
Inactive

$$$$
>  <Compound>
O=C(O)C(c1ccc(Cl)cc1)c1ccc(Cl)cc1

>  <Result>
Inactive

$$$$
>  <Compound>
O=C(C=Cc1ccccc1)OCC=Cc1ccccc1 [3-Phenyl-2-propen-1-yl 3-phenylacrylate]

>  <Result>
Inactive

$$$$
>  <Compound>
C[As+](C)(C)CC(=O)[O-]

>  <Result>
Inactive

$$$$

In: Requested read-out: CYP2D6 AC50 (half-maximal activity concentration). Entry: CCN(CC)c1ccc(C=O)cc1
Out: Inconclusive inhibitor
